Structures can show the parent of a compound that is named as a salt.
Provide the reported melting point of each item.

CC/C(=C(\c1ccc(/C=C/C(=O)O)cc1)c1ccc(OC(=O)CCC(F)(F)F)cc1)c1ccccc1 (as salt: salt): 162 to 163 °C

Please state melting point for every compound in the list that follows.
1. CC/C(=C(\c1ccc(/C=C/C(=O)O)cc1)c1ccc(OC(=O)CCOC)cc1)c1ccccc1
2. CC/C(=C(\c1ccc(/C=C/C(=O)O)cc1)c1ccc(OP(=O)(O)O)cc1)c1ccccc1
3. CC/C(=C(\c1ccc(/C=C/C(=O)O)cc1)c1ccc(OC(=O)c2cccs2)cc1)c1ccccc1 (as salt: salt)

Result ::
1: 190 to 191 °C; 2: 181 to 183 °C; 3: 175 to 176 °C

Please state melting point for every compound in the list that follows.
1. CCOC(=O)Oc1ccc(/C(=C(/CC)c2ccccc2)c2ccc(/C=C/C(=O)O)cc2)cc1
2. CC/C(=C(\c1ccc(/C=C/C(=O)O)cc1)c1ccc(OC(=O)c2ccno2)cc1)c1ccccc1
3. CC/C(=C(\c1ccc(/C=C/C(=O)O)cc1)c1ccc(OC(=O)CN(C)C)cc1)c1ccccc1 (as salt: salt)

Result ::
1: 135 to 136 °C; 2: 141 to 142 °C; 3: 206 to 208 °C

Please state melting point for every compound in the list that follows.
1. CC/C(=C(\c1ccc(/C=C/C(=O)O)cc1)c1ccc(OC(=O)c2ccco2)cc1)c1ccccc1
2. CC/C(=C(\c1ccc(/C=C/C(=O)O)cc1)c1ccc(OC(=O)OC)cc1)c1ccccc1

Result ::
1. 170 to 172 °C
2. 140 to 142 °C

---

assay: Rat oral pharmacokinetics: bioavailability of compound 1; type: in vivo, female CD (Charles River Sprague Dawley) rats; conditions: Table I; single oral gavage 10 mg/kg, suspension in aqueous 0.5% HPMC and 0.1% polysorbate 80 (Tween 80)
readout_kind: Bioavailability of 1 in Rat (% F)

Completed entries (count: 3):
CC/C(=C(\c1ccc(/C=C/C(=O)O)cc1)c1ccc(OC(=O)C2CCCCC2)cc1)c1ccccc1: 3.3 % F
CC/C(=C(\c1ccc(/C=C/C(=O)O)cc1)c1ccc(OC(=O)CN(C)C)cc1)c1ccccc1: 38.3 % F
CC/C(=C(\c1ccc(/C=C/C(=O)O)cc1)c1ccc(OC(=O)CN2CCCCC2)cc1)c1ccccc1: 13.9 % F

Please state Bioavailability of 1 in Rat (% F) for every compound in the list that follows.
1. CC/C(=C(\c1ccc(/C=C/C(=O)O)cc1)c1ccc(OC(C)=O)cc1)c1ccccc1
2. CC/C(=C(\c1ccc(/C=C/C(=O)O)cc1)c1ccc(OC(=O)CN2CCN(C)CC2)cc1)c1ccccc1
3. CC/C(=C(\c1ccc(/C=C/C(=O)O)cc1)c1ccc(OC(=O)CCOC)cc1)c1ccccc1
4. CC/C(=C(\c1ccc(/C=C/C(=O)O)cc1)c1ccc(OC(=O)CN2CCOCC2)cc1)c1ccccc1

Result ::
["13.5 % F", "13.4 % F", "52.4 % F", "21.3 % F"]

---

Provide the reported Bioavailability of 1 in Rat of each item.
assay: Rat oral pharmacokinetics: bioavailability of compound 1; assay type: in vivo, female CD (Charles River Sprague Dawley) rats; settings: Table II; oral, suspension in aqueous 0.5% HPMC and 0.1% polysorbate 80 (Tween 80)
Numbers only, in % F.

Completed entries (count: 5):
CCC(=O)Oc1ccc(/C(=C(/CC)c2ccccc2)c2ccc(/C=C/C(=O)O)cc2)cc1 [Compound 7]: 86.6
CC/C(=C(\c1ccc(/C=C/C(=O)O)cc1)c1ccc(OC(C)=O)cc1)c1ccccc1 [Compound 20]: 13.5
CCCC(=O)Oc1ccc(/C(=C(/CC)c2ccccc2)c2ccc(/C=C/C(=O)O)cc2)cc1 [Compound 21]: 18.2
CC/C(=C(/c1ccc(O)cc1)c1ccc(/C=C/C(=O)O)cc1)c1ccccc1 [Compound 1]: 5.7
CC/C(=C(\c1ccc(/C=C/C(=O)O)cc1)c1ccc(OC(=O)CN(C)C)cc1)c1ccccc1 [Compound 23]: 38.3

// next entry
Query :: Can you share its Bioavailability of 1 in Rat? I mean this compound: CC/C(=C(\c1ccc(/C=C/C(=O)O)cc1)c1ccc(OP(=O)(O)O)cc1)c1ccccc1 [Compound 35]
Result :: 37.0

---

Test: Rat oral pharmacokinetics: bioavailability of compound 1
Type: in vivo, female CD (Charles River Sprague Dawley) rats
Conditions: Table I; single oral gavage 10 mg/kg, suspension in aqueous 0.5% HPMC and 0.1% polysorbate 80 (Tween 80)
Procedure: In order to study the pharmacokinetic behavior of the prodrugs of this invention, a single oral dose of a series of prodrugs as well as compound 1 was administered to female CD (Charles River Sprague Dawley) rats. Rats received each compound by oral gavage at a dose of 10 mg/kg. […]
Classification field: true (1) = Bioavailability of 1 in Rat (% F) at or over 40 % F; false (0) = Bioavailability of 1 in Rat (% F) under 40 % F.

CC/C(=C(\c1ccc(/C=C/C(=O)O)cc1)c1ccc(OC(=O)c2ccco2)cc1)c1ccccc1 [Compound 22]: false (0)
CC/C(=C(/c1ccc(O)cc1)c1ccc(/C=C/C(=O)O)cc1)c1ccccc1 [Compound 1]: false (0)
CCOC(=O)Oc1ccc(/C(=C(/CC)c2ccccc2)c2ccc(/C=C/C(=O)O)cc2)cc1 [Compound 37]: true (1)

Query :: Say whether CC/C(=C(\c1ccc(/C=C/C(=O)O)cc1)c1ccc(OC(=O)c2ccno2)cc1)c1ccccc1 [Compound 24] shows Bioavailability of 1 in Rat (% F) of 40 % F or more.
Result :: true (1)

Query :: Say whether CC/C(=C(\c1ccc(/C=C/C(=O)O)cc1)c1ccc(OC(=O)CCC(F)(F)F)cc1)c1ccccc1 [Compound 27] shows Bioavailability of 1 in Rat (% F) of 40 % F or more.
Result :: false (0)

Query :: Say whether CC/C(=C(\c1ccc(/C=C/C(=O)O)cc1)c1ccc(OP(=O)(O)O)cc1)c1ccccc1 [Compound 35] shows Bioavailability of 1 in Rat (% F) of 40 % F or more.
Result :: false (0)

Query :: Say whether CC/C(=C(\c1ccc(/C=C/C(=O)O)cc1)c1ccc(OC(=O)c2ccccc2)cc1)c1ccccc1 [Compound 18] shows Bioavailability of 1 in Rat (% F) of 40 % F or more.
Result :: false (0)

Query :: Say whether CCC(=O)Oc1ccc(/C(=C(/CC)c2ccccc2)c2ccc(/C=C/C(=O)O)cc2)cc1 [Compound 7] shows Bioavailability of 1 in Rat (% F) of 40 % F or more.
Result :: true (1)

---

test: Equilibrium solubility in fasted state simulated intestinal fluid (SIF); format: physicochemical; settings: fassif, thermodynamic from solid, pH = 6.8
readout_kind: solubility thermodynamic (µg/mL)
One number for each entry, in µg/mL.

Completed entries (count: 2):
CCCC(=O)Oc1ccc(/C(=C(/CC)c2ccccc2)c2ccc(/C=C/C(=O)O)cc2)cc1: 21
CC/C(=C(/c1ccc(O)cc1)c1ccc(/C=C/C(=O)O)cc1)c1ccccc1: 23

Please state solubility thermodynamic for every compound in the list that follows.
1. CC/C(=C(\c1ccc(/C=C/C(=O)O)cc1)c1ccc(OC(C)=O)cc1)c1ccccc1
2. CCC(=O)Oc1ccc(/C(=C(/CC)c2ccccc2)c2ccc(/C=C/C(=O)O)cc2)cc1
3. CC/C(=C(\c1ccc(/C=C/C(=O)O)cc1)c1ccc(OC(=O)CN(C)C)cc1)c1ccccc1

Result ::
1: 129; 2: 61; 3: 15

---

experiment: Rat oral pharmacokinetics: bioavailability of compound 1; type: in vivo, female CD (Charles River Sprague Dawley) rats; conditions: Table I; single oral gavage 10 mg/kg, suspension in aqueous 0.5% HPMC and 0.1% polysorbate 80 (Tween 80)
readout_kind: Bioavailability of 1 in Rat (% F)
Numbers only, in % F.

Completed entries (count: 2):
CC/C(=C(\c1ccc(/C=C/C(=O)O)cc1)c1ccc(OC(=O)c2cccs2)cc1)c1ccccc1 [Compound 25]: 50.9
CCCC(=O)Oc1ccc(/C(=C(/CC)c2ccccc2)c2ccc(/C=C/C(=O)O)cc2)cc1 [Compound 21]: 18.2

Please state Bioavailability of 1 in Rat (% F) for every molecule in the list that follows.
1. CC/C(=C(\c1ccc(/C=C/C(=O)O)cc1)c1ccc(OC(=O)OC)cc1)c1ccccc1 [Compound 40]
2. CC/C(=C(\c1ccc(/C=C/C(=O)O)cc1)c1ccc(OC(=O)C(C)(C)C)cc1)c1ccccc1 [Compound 28]

Result ::
21.9
3.5
